- assay.target: KRas G12V (Homo sapiens, UniProt P01116, G12V);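 note: KRas binding measured by TR-FRET displacement at room temperature, IC50 fitted from percent of control values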
- Sequence (P01116 1-169 isoform P01116-2 G12V): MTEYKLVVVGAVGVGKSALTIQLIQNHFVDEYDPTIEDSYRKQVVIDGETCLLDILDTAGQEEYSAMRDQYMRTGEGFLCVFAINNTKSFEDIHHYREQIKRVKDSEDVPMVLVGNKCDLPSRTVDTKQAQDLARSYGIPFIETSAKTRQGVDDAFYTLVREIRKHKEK
- test.method.notes: biochemical
pIC50: −log10 of the molar value.
measurement.kind: pIC50

{"compound": "CCc1c(F)ccc2cc(O)cc(-c3ncc4c(NCc5ccc6nonc6c5)nc(OC[C@@]56CCCN5C[C@H](F)C6)nc4c3F)c12 [Example 175]", "measurement.kind": "pIC50", "result": "≥ 8.70"}
{"compound": "CCc1c(F)ccc2cc(O)cc(-c3ncc4c(N5CCCC6(CNS(=O)(=O)N6)C5)nc(OC[C@@]56CCCN5C[C@H](F)C6)nc4c3F)c12 (stereo partly drawn) [Example 330]", "measurement.kind": "pIC50", "result": "≥ 8.70"}
{"compound": "CCc1c(F)ccc2cc(O)cc(-c3ncc4c(N5CCOCC(CO)C5)nc(OC[C@@]56CCCN5C[C@H](F)C6)nc4c3F)c12 (stereo partly drawn) [Example 74]", "measurement.kind": "pIC50", "result": "≥ 8.70"}
